assay: plasma stability; format: in vitro ADME; details: mouse, plasma (K2 EDTA)
EXPERIMENTAL ENDPOINT: remaining at 0.5 h, 1 μM (%)
Use % as the unit, but write only the number.

Q) Using the record for CC1CC(OC(=O)C(O)c2ccccc2)CC(C)(C)N1C (stereo not shown) [Eucatropine] , report its remaining at 0.5 h, 1 μM.
A) 43.2
